Across several studies, molecules have been characterized by their pIC50 on Wee1-like protein kinase (Homo sapiens, UniProt P30291); a selection follows.
pIC50: −log10 of the molar value.

In: Quick one: pIC50 of `C=CCn1c(=O)c2cnc(Nc3ccc(N4CCN(C)CC4)cc3)nc2n1-c1ccc2nc(C)n(CC)c2n1` ?
Out: 7.00 to 8.00

In: Also C=CCn1c(=O)c2cnc(Nc3ccc(N4CCN(C)[C@@H](C)C4)cc3)nc2n1-c1ccc2c(n1)C(O)(CC)C1(CC1)C2 (stereo partly shown) , if possible.
Out: ≥ 8.30

In: Also C=CCn1c(=O)c2cnc(Nc3ccc(N4CCN(C)CC4)cc3)nc2n1-c1ccc2c(n1)[C@@H](O)C1(CC2)CC1 (single isomer, unassigned) , if possible.
Out: ≥ 8.30

In: Also `C=CCn1c(=O)c2cnc(Nc3ccc(N4CCN(C)CC4)cc3)nc2n1-c1ccc2c(F)cn(CC)c2n1` , if possible.
Out: 7.00 to 8.00

In: Also `C=CCn1c(=O)c2cnc(Nc3ccc(N4CCN(C)CC4)cc3)nc2n1-c1ccc2c3c(n(CC)c2n1)OCCC3` , if possible.
Out: ≥ 8.30

In: Also `C=CCn1c(=O)c2cnc(Nc3ccc(N4C[C@@H]5C[C@H]4CN5C)cc3)nc2n1-c1ccc2ccn(CC)c2n1` , if possible.
Out: 7.00 to 8.00

In: Also `C=CCn1c(=O)c2cnc(Nc3ccc(N4C[C@@H]5C[C@H]4CN5C)c(C)c3)nc2n1-c1cccc(C(C)(C)O)n1` , if possible.
Out: 8.00 to 8.30

In: Also `C=CCn1c(=O)c2cnc(Nc3ccc(N4C[C@H]5C[C@@H]4CO5)cc3)nc2n1-c1cccc(C(C)(C)O)n1` , if possible.
Out: 8.00 to 8.30

In: Also `Cc1ccc(O)c(C)c1-n1nc(-c2nc3cnccc3s2)c(C(N)=O)c1N` , if possible.
Out: 5.30 to 6.30

In: Also C=CCn1c(=O)c2cnc(Nc3ccc(N4CCN(C)CC4)cc3)nc2n1-c1ccc2c(n1)C(C)(O)C1(CC2)CC1 (stereo not shown) , if possible.
Out: ≥ 8.30

In: Also C=CCn1c(=O)c2cnc(Nc3ccc(N4CCOC5(CCCN(C)C5)C4)cc3)nc2n1-c1cccc(C(C)(C)O)n1 (stereo not shown) , if possible.
Out: 7.00 to 8.00

In: Also C=CCn1c(=O)c2cnc(Nc3ccc(N4CC5CC4CN5C4CCN(C)CC4)c(C)c3)nc2n1-c1cccc(C(C)(C)O)n1 (stereo not shown) , if possible.
Out: 7.00 to 8.00

In: Also `C=CCn1c(=O)c2cnc(Nc3ccc(-n4cc(N(C)C)cn4)cc3)nc2n1-c1cccc(C(C)(C)O)n1` , if possible.
Out: 7.00 to 8.00

In: Also `C=CCn1c(=O)c2cnc(Nc3ccc(N4CCN(C)CC4)cc3)nc2n1-c1ccc2c(n1)N(CC)C(=O)C21CCC1` , if possible.
Out: 7.00 to 8.00

In: Also C=CCn1c(=O)c2cnc(Nc3ccc(N4CCN(C)CC4)cc3)nc2n1-c1ccc2c(n1)C(O)C1(CC2)CC1 (stereo not shown) , if possible.
Out: ≥ 8.30

In: Also `C=CCn1c(=O)c2cnc(Nc3ccc(N4CC5CC(CN(Cc6ccccc6)C5)C4)cc3)nc2n1-c1cccc(C(C)(C)O)n1` , if possible.
Out: 7.00 to 8.00

In: Also C=CCn1c(=O)c2cnc(Nc3ccc(N4C[C@H]5CN(C)C[C@H]5C4)cc3)nc2n1-c1ccc2c(n1)C(O)(CC)C1(CC1)C2 (stereo partly shown) , if possible.
Out: ≥ 8.30

In: Also `C=CCn1c(=O)c2cnc(Nc3ccc(N4CCN(C)CC4)cc3)nc2n1-c1cccc(C2(S(C)(=O)=O)CC2)n1` , if possible.
Out: 8.00 to 8.30

In: Also `C=CCn1c(=O)c2cnc(Nc3ccc(N4C[C@@H]5C[C@H]4CN5CCF)cc3)nc2n1-c1cccc(C(C)(C)O)n1` , if possible.
Out: 8.00 to 8.30

In: Also `C=CCn1c(=O)c2cnc(Nc3ccc(N(CC)CC(=O)N4CCN(C)CC4)cc3)nc2n1-c1cccc(C(C)(C)O)n1` , if possible.
Out: 8.00 to 8.30

In: Also `C=CCn1c(=O)c2cnc(Nc3ccc(N4CCN(C)CC4)cc3)nc2n1-c1ccc2c(n1)[C@@](C)(O)C1(CC2)CC1` , if possible.
Out: ≥ 8.30

In: Also `C=CCn1c(=O)c2cnc(Nc3ccc(C4CCN(C)CC4)cc3)nc2n1-c1ccc2ccn(CC)c2n1` , if possible.
Out: 8.00 to 8.30
